- Test system: Vancomycin-resistant Staphylococcus aureus (VRSA12)
- measurement_protocol: MIC of active MY compounds
- Assay type: cell-based
- reported_conditions: read-out: MIC VRSA12
Task for the reader: assign each of the following molecules its reported MIC.
Give bare numbers, in µg/mL.

Solved entries:
[
  {
    "molecule": "CN[C@H](CC(C)C)C(=O)N[C@H]1C(=O)N[C@@H](CC(N)=O)C(=O)N[C@H]2C(=O)N[C@H]3C(=O)N[C@H](C(=O)N[C@H](C(=O)O)c4cc(O)cc(O)c4-c4cc3ccc4O)[C@H](O)c3ccc(c(Cl)c3)Oc3cc2cc(c3O[C@@H]2O[C@H](CO)[C@@H](O)[C@H](O)[C@H]2O[C@H]2C[C@](C)(N)[C@H](O)[C@H](C)O2)Oc2ccc(cc2Cl)[C@H]1O [Vancomycin, reference compound]",
    "tested_target": "Vancomycin-resistant Staphylococcus aureus (VRSA12)",
    "quantity_unit": "µg/mL",
    "MIC": 64
  },
  {
    "molecule": "O=C(Nc1cccc(Nc2ccc(Cl)nn2)c1)Nc1ccc(Cl)c(Cl)c1",
    "tested_target": "Vancomycin-resistant Staphylococcus aureus (VRSA12)",
    "quantity_unit": "µg/mL",
    "MIC": 4
  },
  {
    "molecule": "CNC(=O)c1cc(Oc2ccc(NC(=O)Nc3ccc(Cl)c(C(F)(F)F)c3)cc2)ccn1 [Sorafenib, reference compound]",
    "tested_target": "Vancomycin-resistant Staphylococcus aureus (VRSA12)",
    "quantity_unit": "µg/mL",
    "MIC": 2
  },
  {
    "molecule": "CC(=O)NC[C@H]1CN(c2ccc(N3CCOCC3)c(F)c2)C(=O)O1 [Linezolid, reference compound]",
    "tested_target": "Vancomycin-resistant Staphylococcus aureus (VRSA12)",
    "quantity_unit": "µg/mL",
    "MIC": 1
  },
  {
    "molecule": "O=C(Nc1ccc(Oc2ccc(=O)[nH]n2)cc1)Nc1ccc(Cl)c(Cl)c1",
    "tested_target": "Vancomycin-resistant Staphylococcus aureus (VRSA12)",
    "quantity_unit": "µg/mL",
    "MIC": 2
  }
]

Give one value of MIC per listed molecule.
1. O=C(Nc1ccc(Oc2ccc(=O)[nH]n2)cc1)Nc1ccc(Cl)c(C(F)(F)F)c1
2. O=C(Nc1ccc(-c2ccc(=O)[nH]n2)cc1)Nc1ccc(Cl)c(Cl)c1

Output:
1
1

All figures here come from patent US11648248B1.
